- System: 855422-203-R-J1-PDC complex spheroid growth
- Measurement notes: Anticancer human tumor 855422-203-R-J1-PDC patient-derived bladder carcinoma cell line growth inhibition [AhR]
- Condition details: second compound 1 µM; first compound 0.01 µM; hits give low values
Below, each entry is listed alongside its reported viability, T/C.
Form entry: value (%) — number only.

The following compounds have reported results that may help.
CC[C@@]1(O)C(=O)OCc2c1cc1n(c2=O)Cc2cc3c(CN(C)C)c(O)ccc3nc2-1 + CC(CO)NC(=O)c1cc(-c2ccc(Cl)cc2)nn(-c2cnn(C)c2)c1=O | 104
CC1COCCN1c1cc(-c2ccnn2C)c2ccnc(-c3ccn[nH]3)c2n1 (configuration not stated) + CC(CO)NC(=O)c1cc(-c2ccc(Cl)cc2)nn(-c2cnn(C)c2)c1=O | 89.4
CC[C@@]1(O)C(=O)OCc2c1cc1n(c2=O)Cc2cc3c(CN(C)C)c(O)ccc3nc2-1 + Cc1ccccc1N=Nc1ccc(NC(=O)c2ccnn2C)c(C)c1 | 98.7
Nc1ncn(C2CC(O)C(CO)O2)c(=O)n1 (configuration not stated) + CC(CO)NC(=O)c1cc(-c2ccc(Cl)cc2)nn(-c2cnn(C)c2)c1=O | 96.6
CC1COCCN1c1cc(-c2ccnn2C)c2ccnc(-c3ccn[nH]3)c2n1 (configuration not stated) + Cc1cncc(-c2nc(NCCc3c[nH]c4ccccc34)c3ncn(C(C)C)c3n2)c1 | 79.9
Nc1ncn(C2CC(O)C(CO)O2)c(=O)n1 (configuration not stated) + Cc1cncc(-c2nc(NCCc3c[nH]c4ccccc34)c3ncn(C(C)C)c3n2)c1 | 90
Nc1ncn(C2CC(O)C(CO)O2)c(=O)n1 (configuration not stated) + Cc1ccccc1N=Nc1ccc(NC(=O)c2ccnn2C)c(C)c1 | 98.5
CC1COCCN1c1cc(-c2ccnn2C)c2ccnc(-c3ccn[nH]3)c2n1 (configuration not stated) + Cc1ccccc1N=Nc1ccc(NC(=O)c2ccnn2C)c(C)c1 | 106

Prompt: # viability, T/C lookup, item Cn1ncnc1C1c2n[nH]c(=O)c3cc(F)cc(c23)NC1c1ccc(F)cc1 (configuration not stated) + Cc1ccccc1N=Nc1ccc(NC(=O)c2ccnn2C)c(C)c1
Response: 103

Prompt: Could you do the same for Cn1ncnc1C1c2n[nH]c(=O)c3cc(F)cc(c23)NC1c1ccc(F)cc1 (configuration not stated) + CC(CO)NC(=O)c1cc(-c2ccc(Cl)cc2)nn(-c2cnn(C)c2)c1=O , please?
Response: 109

Prompt: Let us now turn to CC[C@@]1(O)C(=O)OCc2c1cc1n(c2=O)Cc2cc3c(CN(C)C)c(O)ccc3nc2-1 + Cc1cncc(-c2nc(NCCc3c[nH]c4ccccc34)c3ncn(C(C)C)c3n2)c1
Response: 78.1

Prompt: What do you get for Cn1ncnc1C1c2n[nH]c(=O)c3cc(F)cc(c23)NC1c1ccc(F)cc1 (configuration not stated) + Cc1cncc(-c2nc(NCCc3c[nH]c4ccccc34)c3ncn(C(C)C)c3n2)c1 ?
Response: 78.3

* * *

viability, T/C reference
- Tested on: 855422-203-R-J1-PDC complex spheroid growth
- Measurement notes: Anticancer human tumor 855422-203-R-J1-PDC cell line growth inhibition [AhR];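 also: spheroids exposed to agents for seven days before readout; percent of DMSO vehicle control luminescence viability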
- Condition details: second compound 3.16 µM; first compound 3.16 µM; hits give low values
Please respond with the number in % and leave the unit unwritten.

Sample answers from the record:
O=C(C=Cc1cccc(S(=O)(=O)Nc2ccccc2)c1)NO + Cc1cncc(-c2nc(NCCc3c[nH]c4ccccc34)c3ncn(C(C)C)c3n2)c1 | 12.2
O=C(c1cc(Cc2n[nH]c(=O)c3ccccc23)ccc1F)N1CCN(C(=O)C2CC2)CC1 + Cc1cncc(-c2nc(NCCc3c[nH]c4ccccc34)c3ncn(C(C)C)c3n2)c1 | 89.8

Here's the next entry for you.
Prompt: Quick one: viability, T/C for CC1(C)CCC(CN2CCN(c3ccc(C(=O)NS(=O)(=O)c4ccc(NCC5CCOCC5)c([N+](=O)[O-])c4)c(Oc4cnc5[nH]ccc5c4)c3)CC2)=C(c2ccc(Cl)cc2)C1 + Cc1ccccc1N=Nc1ccc(NC(=O)c2ccnn2C)c(C)c1 ?
Response: 98.2

* * *

- Test system: 855422-203-R-J1-PDC complex spheroid growth
- Measurement notes: Anticancer human tumor 855422-203-R-J1-PDC cell line growth inhibition [AhR];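 also: spheroids exposed to agents for seven days before readout; percent of DMSO vehicle control luminescence viability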
- Condition details: second compound 10 µM; first compound 0.0316 µM; hits give low values
Measure name: viability, T/C (%)
Unit % implied. Number only.

COc1cccc2c1C(=O)c1c(O)c3c(c(O)c1C2=O)CC(O)(C(=O)CO)CC3OC1CC(N)C(O)C(C)O1 (stereo not drawn) + Cc1ccccc1N=Nc1ccc(NC(=O)c2ccnn2C)c(C)c1 | 39.6
Nc1ccccc1NC(=O)c1ccc(CNC(=O)OCc2cccnc2)cc1 + Cc1cncc(-c2nc(NCCc3c[nH]c4ccccc34)c3ncn(C(C)C)c3n2)c1 | 7.49

We now examine a further compound.
Prompt: Tell me reported viability, T/C for Cn1ncnc1C1c2n[nH]c(=O)c3cc(F)cc(c23)NC1c1ccc(F)cc1 (stereo not drawn) + Cc1ccccc1N=Nc1ccc(NC(=O)c2ccnn2C)c(C)c1 , tested with 855422-203-R-J1-PDC complex spheroid growth.
Response: 76.2

* * *

- System: 855422-203-R-J1-PDC complex spheroid growth
- Measurement notes: Anticancer human tumor 855422-203-R-J1-PDC cell line growth inhibition [AhR];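 also: spheroids exposed to agents for seven days before readout; percent of DMSO vehicle control luminescence viability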
- Condition details: second compound 10 µM; first compound 1 µM; hits give low values
# viability, T/C annotations
Only the number, expressed in %, is required.

Example compounds with recorded viability, T/C:
COc1cc(Nc2ncc3c(n2)-c2ccc(Cl)cc2C(c2c(F)cccc2OC)=NC3)ccc1C(=O)O + CC(CO)NC(=O)c1cc(-c2ccc(Cl)cc2)nn(-c2cnn(C)c2)c1=O | 50.6
COc1cc(Nc2ncc3c(n2)-c2ccc(Cl)cc2C(c2c(F)cccc2OC)=NC3)ccc1C(=O)O + Cc1ccccc1N=Nc1ccc(NC(=O)c2ccnn2C)c(C)c1 | 89.7
COc1ccc([C@@H](O)c2cc(-c3ncnc4cc(N5CCOCC5)ccc34)c(F)cc2Cl)nn1 + CC(CO)NC(=O)c1cc(-c2ccc(Cl)cc2)nn(-c2cnn(C)c2)c1=O | 84.2

Prompt: For O=C(C=Cc1cccc(S(=O)(=O)Nc2ccccc2)c1)NO + Cc1ccccc1N=Nc1ccc(NC(=O)c2ccnn2C)c(C)c1 , what is its reported viability, T/C?
Response: 79.6

Prompt: O=C(c1cc(Cc2n[nH]c(=O)c3ccccc23)ccc1F)N1CCN(C(=O)C2CC2)CC1 + Cc1ccccc1N=Nc1ccc(NC(=O)c2ccnn2C)c(C)c1 ?
Response: 79.7

Prompt: Try the compound O=C(c1cc(Cc2n[nH]c(=O)c3ccccc23)ccc1F)N1CCN(C(=O)C2CC2)CC1 + Cc1cncc(-c2nc(NCCc3c[nH]c4ccccc34)c3ncn(C(C)C)c3n2)c1
Response: 3.22

* * *

Measured viability, T/C by item
- Tested on: 855422-203-R-J1-PDC complex spheroid growth
- Measurement notes: Anticancer human tumor 855422-203-R-J1-PDC cell line growth inhibition [AhR];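 also: spheroids exposed to agents for seven days before readout; percent of DMSO vehicle control luminescence viability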
- Condition details: second compound 0.1 µM; first compound 0.000949 µM; hits give low values
API: value field is a number in %; no unit string.

Would you please look over these solved cases?
CC(C)CC(NC(=O)C(Cc1ccccc1)NC(=O)c1cnccn1)B(O)O (centres undefined) + Cc1ccccc1N=Nc1ccc(NC(=O)c2ccnn2C)c(C)c1 | 108
CCc1c2c(nc3ccc(O)cc13)-c1cc3c(c(=O)n1C2)COC(=O)[C@]3(O)CC + Cc1cncc(-c2nc(NCCc3c[nH]c4ccccc34)c3ncn(C(C)C)c3n2)c1 | 99.6
Nc1ncn(C2CC(O)C(CO)S2)c(=O)n1 (centres undefined) + CC(CO)NC(=O)c1cc(-c2ccc(Cl)cc2)nn(-c2cnn(C)c2)c1=O | 91.9
CCc1c2c(nc3ccc(O)cc13)-c1cc3c(c(=O)n1C2)COC(=O)[C@]3(O)CC + Cc1ccccc1N=Nc1ccc(NC(=O)c2ccnn2C)c(C)c1 | 107
CC(C)CC(NC(=O)C(Cc1ccccc1)NC(=O)c1cnccn1)B(O)O (centres undefined) + CC(CO)NC(=O)c1cc(-c2ccc(Cl)cc2)nn(-c2cnn(C)c2)c1=O | 115

Prompt: Given CC(C)CC(NC(=O)C(Cc1ccccc1)NC(=O)c1cnccn1)B(O)O (centres undefined) + Cc1cncc(-c2nc(NCCc3c[nH]c4ccccc34)c3ncn(C(C)C)c3n2)c1 , state its recorded viability, T/C.
Response: 93

Prompt: // same read-out, input: CCc1c2c(nc3ccc(O)cc13)-c1cc3c(c(=O)n1C2)COC(=O)[C@]3(O)CC + CC(CO)NC(=O)c1cc(-c2ccc(Cl)cc2)nn(-c2cnn(C)c2)c1=O
Response: 95.5

Prompt: Another molecule: Nc1ncn(C2CC(O)C(CO)S2)c(=O)n1 (centres undefined) + Cc1cncc(-c2nc(NCCc3c[nH]c4ccccc34)c3ncn(C(C)C)c3n2)c1
Response: 92.3

Prompt: Entry Nc1ncn(C2CC(O)C(CO)S2)c(=O)n1 (centres undefined) + Cc1ccccc1N=Nc1ccc(NC(=O)c2ccnn2C)c(C)c1 please
Response: 99.8
